- assayTarget: UniProt:P35398
- Sequence (P35398 whole entry, the tested form may be a part): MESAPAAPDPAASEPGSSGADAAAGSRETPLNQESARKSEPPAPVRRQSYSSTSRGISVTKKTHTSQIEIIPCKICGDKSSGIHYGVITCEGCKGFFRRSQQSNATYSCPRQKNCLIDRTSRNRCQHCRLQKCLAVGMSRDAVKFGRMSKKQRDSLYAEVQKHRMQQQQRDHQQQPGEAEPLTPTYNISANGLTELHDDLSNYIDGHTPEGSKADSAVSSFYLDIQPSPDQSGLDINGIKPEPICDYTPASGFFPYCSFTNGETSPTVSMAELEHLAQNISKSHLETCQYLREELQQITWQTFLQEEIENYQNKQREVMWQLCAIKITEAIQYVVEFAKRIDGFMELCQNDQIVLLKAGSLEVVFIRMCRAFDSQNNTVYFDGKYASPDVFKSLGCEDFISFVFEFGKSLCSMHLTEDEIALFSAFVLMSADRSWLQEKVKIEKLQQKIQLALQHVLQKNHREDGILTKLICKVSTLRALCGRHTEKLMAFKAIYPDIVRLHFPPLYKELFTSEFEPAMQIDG
- assay: Inverse agonist activity at GAL4-fused ROR alpha (unknown origin) expressed in HEK293 cells assessed as inhibition of transcriptional activity after 24 hrs by luciferase reporter gene assay

{"entrySmiles": "CC(=O)Nc1nc(C)c(S(=O)(=O)Nc2ccc(C(O)(C(F)(F)F)C(F)(F)F)cc2)s1", "EC50, nM": 4000}
{"entrySmiles": "O=S(=O)(Nc1ccc(C(O)(C(F)(F)F)C(F)(F)F)cc1)c1cccs1", "EC50, nM": 480}

----------
- assayTarget: Nuclear receptor ROR-gamma (Homo sapiens)
- assay: Agonist activity at full length human ROR gamma expressed in human Jurkat cells assessed as IL17 promoter activation by luciferase reporter gene assay
- Assay type: functional, cell-based
measure: EC50 (nM)

{"entrySmiles": "Cc1cccc(C(=O)Nc2cc(-c3ccccc3)no2)c1", "assayTarget": "Nuclear receptor ROR-gamma (Homo sapiens)", "measureUnit": "nM", "measuredNumber": 100}
{"entrySmiles": "Cc1cc(C)c2nc(NC(=O)c3sccc3C)sc2c1", "assayTarget": "Nuclear receptor ROR-gamma (Homo sapiens)", "measureUnit": "nM", "measuredNumber": 100}
{"entrySmiles": "CCC(=O)Nc1ccc2nn(-c3ccc(CC)cc3)nc2c1", "assayTarget": "Nuclear receptor ROR-gamma (Homo sapiens)", "measureUnit": "nM", "measuredNumber": 100}

----------
A collection of molecules and their measured IC20
- assayTarget: Nuclear receptor ROR-alpha (Mus musculus)
- conditionDetails: CHO-K1
- Description: Inverse agonist activity at mouse ROR alpha expressed in CHO-K1 cells after 24 hrs by luciferase reporter gene assay relative to vehicle control response
measure: IC20 (µM)

{"molecule": "CCCOC/C(=N\\c1ccc(Cl)cc1C(F)(F)F)n1ccnc1", "assayTarget": "Nuclear receptor ROR-alpha (Mus musculus)", "measure": "IC20", "measuredNumber": 10}
{"molecule": "O=S(=O)(c1ccccc1)N(CC(F)(F)F)c1ccc(C(O)(C(F)(F)F)C(F)(F)F)cc1", "assayTarget": "Nuclear receptor ROR-alpha (Mus musculus)", "measure": "IC20", "measuredNumber": 12}
{"molecule": "Clc1ccc(CS/C(Cn2cncn2)=N\\c2ccc(Cl)cc2Cl)cc1", "assayTarget": "Nuclear receptor ROR-alpha (Mus musculus)", "measure": "IC20", "measuredNumber": 10}
{"molecule": "CCCCC(O)(Cn1cncn1)c1ccc(Cl)cc1Cl (centres undefined)", "assayTarget": "Nuclear receptor ROR-alpha (Mus musculus)", "measure": "IC20", "measuredNumber": 10}

----------
- assayTarget: Nuclear receptor ROR-gamma (Homo sapiens)
- Sequence (P51449 whole entry): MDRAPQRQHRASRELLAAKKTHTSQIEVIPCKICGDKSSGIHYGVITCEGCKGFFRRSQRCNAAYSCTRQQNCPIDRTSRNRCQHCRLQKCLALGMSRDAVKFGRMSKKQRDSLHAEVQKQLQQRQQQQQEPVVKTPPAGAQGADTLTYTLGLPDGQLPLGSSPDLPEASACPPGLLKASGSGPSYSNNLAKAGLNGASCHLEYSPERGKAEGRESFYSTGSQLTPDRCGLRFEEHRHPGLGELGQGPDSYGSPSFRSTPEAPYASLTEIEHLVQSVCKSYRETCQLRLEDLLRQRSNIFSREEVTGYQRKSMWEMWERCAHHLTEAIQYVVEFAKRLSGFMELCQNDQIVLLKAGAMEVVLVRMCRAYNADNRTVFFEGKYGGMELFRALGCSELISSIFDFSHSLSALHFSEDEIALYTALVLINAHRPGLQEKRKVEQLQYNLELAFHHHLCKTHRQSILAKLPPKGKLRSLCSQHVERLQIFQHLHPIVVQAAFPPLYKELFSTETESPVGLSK
- assay: Displacement of 25-[3H]hydroxycholesterol from ROR gamma (unknown origin) by competitive binding assay

{"molecule": "CC(c1ccccc1)(c1ccc(O)cc1)c1ccc(O)cc1", "assayTarget": "Nuclear receptor ROR-gamma (Homo sapiens)", "sign": ">", "IC50 / nM": 10000}
{"molecule": "CCC(C)c1cc(C(C)(C)c2ccc(O)c(C(C)CC)c2)ccc1O (configuration not stated)", "assayTarget": "Nuclear receptor ROR-gamma (Homo sapiens)", "sign": "=", "IC50 / nM": 150}

----------
- assay: Plasma concentration in mouse at 10 mg/kg, ip after 4 hrs
- Format: ADME, organism-based
- Parameters: dose 10 mg/kg, route intraperitoneal
measure: concentration at 4 h

{"entrySmiles": "O=S(=O)(Nc1ccc(C(O)(C(F)(F)F)C(F)(F)F)cc1)c1cccs1", "result": "> 360 nM"}

----------
- assay: Plasma concentration in mouse at 10 mg/kg, ip after 0.5 hrs
- Type: ADME, organism-based
- Set-up: dose 10 mg/kg, route intraperitoneal

{"entrySmiles": "O=S(=O)(Nc1ccc(C(O)(C(F)(F)F)C(F)(F)F)cc1)c1cccs1", "measureUnit": "µM", "concentration at 0.5 h": 9}

----------
- assayTarget: Nuclear receptor ROR-gamma (Homo sapiens) (UniProt P51449)
- assay: Binding affinity to human ROR gamma ligand binding domain assessed as thermal stability shift by circular dichroism analysis

{"compound": "CC(C)CCC(O)[C@@H](C)[C@H]1CC[C@H]2[C@@H]3CC=C4C[C@@H](O)CC[C@]4(C)[C@H]3CC[C@]12C (some centres undefined)", "melting temperature shift (delta Tm) / °C": 7.3}
{"compound": "Cc1cccc(C(=O)Nc2cc(-c3ccccc3)no2)c1", "melting temperature shift (delta Tm) / °C": 3}
{"compound": "Cc1cc(C)c2nc(NC(=O)c3sccc3C)sc2c1", "melting temperature shift (delta Tm) / °C": 3}
{"compound": "CCC(=O)Nc1ccc2nn(-c3ccc(CC)cc3)nc2c1", "melting temperature shift (delta Tm) / °C": 3}

----------
- assayTarget: Nuclear receptor ROR-gamma (Homo sapiens, UniProt P51449)
- assay: Activity at human His(GST)-tagged ROR gamma LBD expressed in Escherichia coli BL21 (DE3) cells assessed as receptor-biotinylated SRC1 peptide interaction by TR-FRET assay
- Type: functional
pEC50: −log10 of the molar value.

{"entrySmiles": "O=C(O)c1ccc(-c2nn(C(=O)c3c(Cl)cccc3Cl)c3ccccc23)cc1", "pEC50": 7.96}

----------
The next entries give measured pKi for Nuclear receptor ROR-gamma (Homo sapiens, UniProt P51449).
pKi: −log10 of the molar value.
measure: pKi

{"entrySmiles": "CC(=O)Nc1nc(C)c(S(=O)(=O)Nc2ccc(C(O)(C(F)(F)F)C(F)(F)F)cc2)s1", "measure": "pKi", "measuredNumber": 6.95}
{"entrySmiles": "CC(C)[C@@H](O)CC[C@@H](C)[C@H]1CC[C@H]2[C@@H]3CC=C4C[C@@H](O)CC[C@]4(C)[C@H]3CC[C@]12C", "measure": "pKi", "measuredNumber": 8.00}
{"entrySmiles": "CC(C)CCC[C@@H](C)[C@H]1CC[C@H]2[C@@H]3[C@@H](O)C=C4C[C@@H](O)CC[C@]4(C)[C@H]3CC[C@]12C", "measure": "pKi", "measuredNumber": 8.00}
{"entrySmiles": "CC(C)CCC[C@@H](C)[C@H]1CC[C@H]2[C@@H]3[C@H](O)C=C4C[C@@H](O)CC[C@]4(C)[C@H]3CC[C@]12C", "measure": "pKi", "measuredNumber": 8.00}
